Reference for the values: patent US20140017242A1

Each entry below lists one item and its recorded Max Response value.
- TARGET_DESC: T1, human BKB2R-derived epitope peptide (SEQ ID NO:73), PEG-biotin (human, also: PEG-biotin, site not given here)
- T1 construct: also called immunogenic human BKB2R peptide fragment
- T1 peptide: KEYSDEGHNVTAC
- TEST_DESCRIPTION: BLI (Octet), peptide-PEG-biotin on streptavidin sensor, antibody 500 nM
Where no end group is shown, it is not given here.
ENDPOINT_NAME: Max Response

INSERT INTO results (binder, test_value) VALUES
  ('humanized anti-BKB2R antibody H38/L37 (antibody, human IgG2, kappa, V domains shown) VH: EVQLLESGGGLVQPGGSLKLSCAVSGFTFSDYWMSWVRQAPGKGLEWVSEIRLKSDNYATHYADSVKGRFTISRDDSKNTLYLQMNSLRAEDTAVYYCTRDYYAMEYWGQGTLVTVSS VL: DIVMTQTPLSLSVTPGQPASISCKSSQTIVHSNGKTYLYWYLQKPGQSPQLLIYKVSSRFSGVPDRFSGSGSGTDFTLKISRVEAEDVGVYYCFQASHVPYTFGQGTKLEIKR', 0.577),
  ('humanized anti-BKB2R antibody H38/L38 (antibody, human IgG2, kappa, V domains shown) VH: EVQLLESGGGLVQPGGSLKLSCAVSGFTFSDYWMSWVRQAPGKGLEWVSEIRLKSDNYATHYADSVKGRFTISRDDSKNTLYLQMNSLRAEDTAVYYCTRDYYAMEYWGQGTLVTVSS VL: DIVMTQTPLSLPVTSGEPASISCRSSQTIVHSNGKTYLDWYLQKPGQSPQLLIYKVSNRASGVPDRFSGSGSGTDFTLKISRVEAEDVGVYYCFQASHVPYTFGGGTKVEIKR', 0.132),
  ('chimeric/humanized anti-BKB2R antibody L1/HC (antibody, human IgG2, V domains shown, not shown: human IgG2 constant region) VH: EVKLEESGGGLVQPGGSMKLSCVVSGFTFSDYWMSWVRHSPEMGLEWVAEIRLKSDNYATHYAESVKGRFTISRDDSKSRLYLQINSLRGEDTGIYYCTRDYYAMEYWGQGTSVTVSS VL: DIVMTQSPLSLPVTPGEPASISCRSSQTIVHSNGKTYLEWYLQKPGQSPQLLIYKVSNRFSGVPDRFSGSGSGTDFTLKISRVEAEDVGVYYCFQASHVPYTFGQGTKLEIKR', 0.194),
  ('humanized anti-BKB2R antibody L2/H1 (antibody, human IgG2, kappa, V domains shown) VH: EVQLVESGGGLVQPGGSLRLSCAASGFTFSDYWMSWVRQAPGKGLEWVAEIRLKSDNYATHYAESVKGRFTISRDNAKNSLYLQMNSLRAEDTAVYYCTRDYYAMEYWGQGTLVTVSS VL: DIVMTQSPLSLPVTPGEPASISCRSSQTIVHSNGKTYLEWYLQKPGQSPQLLIYKVSNRFSGVPDRFSGSGSGTEFTLKISRVEAEDVGVYYCFQASHVPYTFGQGTKLEIKR', 0.172),
  ('humanized anti-BKB2R antibody H39/L38 (antibody, human IgG2, kappa, V domains shown) VH: EVKLVESGGGLVQPGGSLRLSCAVSGFTFSDYWMDWVRQAPGKGLEWVAEIRLKSDNYATHYAASVKGRFTISRDDSKSRLYLQMNSLKTEDTAVYYCTRDYYAMEYWGQGTTVTVSS VL: DIVMTQTPLSLPVTSGEPASISCRSSQTIVHSNGKTYLDWYLQKPGQSPQLLIYKVSNRASGVPDRFSGSGSGTDFTLKISRVEAEDVGVYYCFQASHVPYTFGGGTKVEIKR', 0.143),
  ('humanized anti-BKB2R antibody H39/L37 (antibody, human IgG2, kappa, V domains shown) VH: EVKLVESGGGLVQPGGSLRLSCAVSGFTFSDYWMDWVRQAPGKGLEWVAEIRLKSDNYATHYAASVKGRFTISRDDSKSRLYLQMNSLKTEDTAVYYCTRDYYAMEYWGQGTTVTVSS VL: DIVMTQTPLSLSVTPGQPASISCKSSQTIVHSNGKTYLYWYLQKPGQSPQLLIYKVSSRFSGVPDRFSGSGSGTDFTLKISRVEAEDVGVYYCFQASHVPYTFGQGTKLEIKR', 0.119),
  ('chimeric/humanized anti-BKB2R antibody L2/HC (antibody, human IgG2, V domains shown, not shown: human IgG2 constant region) VH: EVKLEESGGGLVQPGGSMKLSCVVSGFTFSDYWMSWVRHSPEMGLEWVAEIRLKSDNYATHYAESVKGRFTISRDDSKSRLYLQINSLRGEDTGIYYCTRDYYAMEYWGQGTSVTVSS VL: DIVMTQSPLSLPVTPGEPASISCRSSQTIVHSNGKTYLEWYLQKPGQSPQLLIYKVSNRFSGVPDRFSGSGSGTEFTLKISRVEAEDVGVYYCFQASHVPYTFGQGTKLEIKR', 0.143),
  ('humanized anti-BKB2R antibody L1/H2 (antibody, human IgG2, kappa, V domains shown) VH: EVQLVESGGGLVQPGGSLRLSCVASGFTFSDYWMSWVRQAPGKGLEWVAEIRLKSDNYATHYAESVKGRFTISRDDAKNSLYLQMNSLRAEDTAVYYCTRDYYAMEYWGQGTLVTVSS VL: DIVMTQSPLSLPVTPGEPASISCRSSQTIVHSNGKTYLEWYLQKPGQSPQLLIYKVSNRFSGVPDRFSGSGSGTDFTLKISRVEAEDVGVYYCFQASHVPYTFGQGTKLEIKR', 0.161),
  ('humanized anti-BKB2R antibody L1/H1 (antibody, human IgG2, kappa, V domains shown, also called H1/L1) VH: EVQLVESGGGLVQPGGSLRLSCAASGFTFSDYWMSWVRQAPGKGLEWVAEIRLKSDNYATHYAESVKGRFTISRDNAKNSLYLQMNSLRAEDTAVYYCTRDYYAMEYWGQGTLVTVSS VL: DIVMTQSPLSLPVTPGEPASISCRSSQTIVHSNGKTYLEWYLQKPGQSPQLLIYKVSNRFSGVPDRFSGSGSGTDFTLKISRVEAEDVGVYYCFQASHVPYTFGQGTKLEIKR', 0.216),
  ('humanized anti-BKB2R antibody H38/L39 (antibody, human IgG2, kappa, V domains shown) VH: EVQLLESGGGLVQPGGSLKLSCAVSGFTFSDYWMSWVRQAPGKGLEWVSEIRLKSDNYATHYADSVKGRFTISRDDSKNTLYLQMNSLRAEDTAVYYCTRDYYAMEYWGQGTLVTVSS VL: DVVMTQTPLSLSVTPGQPASISCKSSQTIVHSNGKTYLEWYLQKPGQSPQLLIYKVSNRFSGVPDRFSGSGSGTDFTLKISRVEAEDVGVYYCFQASHVPYTFGQGTKLEIKR', 0.0681),
  ('humanized anti-BKB2R antibody H37/L38 (antibody, human IgG2, kappa, V domains shown) VH: EVQLVESGGGLVQPGGSLRLSCAASGFTFSDYWMDWVRQAPGKGLEWVGEIRLKSDNYATHYAASVKGRFTISRDDSKNSLYLQMNSLKTEDTAVYYCTRDYYAMEYWGQGTTVTVSS VL: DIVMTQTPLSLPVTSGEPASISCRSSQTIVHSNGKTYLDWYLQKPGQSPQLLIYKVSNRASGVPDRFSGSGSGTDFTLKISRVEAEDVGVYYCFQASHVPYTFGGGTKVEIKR', 0.173);
